Conditions: PAMPA
Experimental Readout: log PABL
Give the figure by itself; no unit, no explanation.

Some solved cases for reference:
1) CNS(=O)(=O)Cc1ccc2[nH]cc(CCN(C)C)c2c1; −4.65
2) COc1cccc2c1C(=O)c1c(O)c3c(c(O)c1C2=O)C[C@@](O)(C(C)=O)C[C@@H]3O[C@H]1C[C@H](N)[C@H](O)[C@H](C)O1; −4.38
3) COc1ccc2c3c1O[C@H]1[C@@H](O)C=C[C@H]4[C@@H](C2)N(C)CC[C@@]341; −4.69

Given "CN1CCN(CCCN2c3ccccc3Sc3ccc(C(F)(F)F)cc32)CC1" , state its recorded log PABL. −3.32

Same lookup for "COc1ccc2c(c1)c(CC(=O)O)c(C)n2C(=O)c1ccc(Cl)cc1" , please. −2.67

Same lookup for "COc1cccc2c1C(=O)c1c(O)c3c(c(O)c1C2=O)C[C@@](O)(C(=O)CO)C[C@@H]3O[C@H]1C[C@H](N)[C@H](O)[C@H](C)O1" , please. −4.61

Same lookup for CC(C)(C)c1ccc(C(O)CCCN2CCC(C(O)(c3ccccc3)c3ccccc3)CC2)cc1 (centres unmarked) , please. −3.76

Same lookup for "CNCC[C@@H](Oc1ccccc1C)c1ccccc1" , please. −3.01

Same lookup for COc1cc([C@@H]2c3cc4c(cc3[C@@H](O[C@@H]3O[C@@H]5CO[C@@H](C)O[C@H]5[C@H](O)[C@H]3O)[C@H]3COC(=O)[C@H]23)OCO4)cc(OC)c1O [Etoposide] , please. −4.62

Same lookup for "N[C@@H](Cc1ccc(O)c(O)c1)C(=O)O" , please. −4.47

Same lookup for CN(C)C(=O)C(CCN1CCC(O)(c2ccc(Cl)cc2)CC1)(c1ccccc1)c1ccccc1 [Loperamide] , please. −3.19
